- target.system: recombinant human BACE-1 (Homo sapiens)
- Construct: purchased R&D Systems (Minneapolis, MN, USA)
- Sequence (P56817 46-501): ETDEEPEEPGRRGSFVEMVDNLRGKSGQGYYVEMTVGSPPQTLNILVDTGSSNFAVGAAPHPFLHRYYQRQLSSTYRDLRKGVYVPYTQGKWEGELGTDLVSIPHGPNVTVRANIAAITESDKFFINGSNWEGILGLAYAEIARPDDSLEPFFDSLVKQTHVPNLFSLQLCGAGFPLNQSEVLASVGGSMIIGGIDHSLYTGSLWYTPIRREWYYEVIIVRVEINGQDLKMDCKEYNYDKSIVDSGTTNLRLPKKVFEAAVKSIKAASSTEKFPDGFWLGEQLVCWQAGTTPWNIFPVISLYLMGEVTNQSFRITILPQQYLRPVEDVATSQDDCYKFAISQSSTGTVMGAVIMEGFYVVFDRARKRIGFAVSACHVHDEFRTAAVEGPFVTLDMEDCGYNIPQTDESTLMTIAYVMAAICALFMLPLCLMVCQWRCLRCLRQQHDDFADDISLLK
- method.summary: FRET-based enzyme assay, BACE-1 inhibition
- Format: biochemical
- experimental.conditions: IC50, μM (95% CL), pH 4.5, 1 h at 25 °C
measurement.label: IC50 (µM)
Unit µM implied. Number only.

Req: Please state recorded IC50 (tested on recombinant human BACE-1 (Homo sapiens)) of CC1(C)CC[C@]2(C(=O)O)CC[C@]3(C)C(=CC[C@@H]4[C@@]5(C)C[C@@H](O)[C@H](O)C(C)(C)[C@@H]5CC[C@]43C)[C@@H]2C1 [Maslinic acid, maslinic acid]
Resp: 488
